# experiment-notes: Tanguay_ZF_120hpf_ActivityScore_legacy: (Legacy) Oregon State University Tanguay Lab 120 Hour Post-fertilization zebrafish Assay Score for Activity (AID 2283742);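 also: dechorionated Tropical 5D wild-type zebrafish embryos held singly per well; static exposure from 6 hpf until 120 hpf at 28 °C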
Activity calls are given as the source filed them. The calls were made as follows: active = hit-call score of the fitted dose curve at least 0.9, where 1 is the maximum; inconclusive = response in the unintended direction; inactive = score below 0.9.
Assign AC50 to each entry below.

IN: Field request: AC50 | item: `CC(=O)[O][Hg][c]1ccccc1`
OUT: 0.111 µM (active)

IN: Field entry: `Cn1sc(Cl)cc1=O`
OUT: 39.8 µM (active)

----------
# experiment-notes: CCTE_Shafer_MEA_acute_firing_rate_mean: CCTE's Neural Acute Assay for Mean Firing Rate, Shafer Lab (AID 2284009);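 also: analyzed for loss of signal so actives lower firing rate relative to DMSO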
Active and inactive are the calls of the source. How the source made its calls: active means hit-call score of the fitted dose curve at least 0.9, where 1 is the maximum; inactive means score below 0.9.
Hi there, use one of these labels in your reply, thanks! active, inactive

IN: Record lookup: outcome of this test for `CC(=O)[O][Hg][c]1ccccc1` ?
OUT: inactive

IN: Field entry: `C[C@]12CCC(=O)C[C@@H]1CC[C@@H]1[C@@H]2CC[C@]2(C)[C@@H](O)CC[C@@H]12`
OUT: active

IN: Field entry: `O=C(O)C(F)(F)C(F)(F)C(F)(F)C(F)(F)C(F)(F)C(F)(F)C(F)(F)C(F)(F)C(F)(F)C(F)(F)F`
OUT: inactive

IN: Field entry: `COC(=O)Cc1ccccc1`
OUT: inactive

IN: Field entry: CCC(=O)C(CC(C)N(C)C)(c1ccccc1)c1ccccc1 (stereo not drawn)
OUT: active

IN: Field entry: `CCCCCCCCc1ccc(O)cc1`
OUT: active

IN: Field entry: `CC(C)(c1ccccc1)c1ccc(O)c(C(C)(C)c2ccccc2)c1`
OUT: active

IN: Field entry: `CC(C)(OO)c1ccccc1`
OUT: inactive

IN: Field entry: `O=C(Nc1ccc2[nH]ccc2c1)c1cc2cc(F)ccc2n1Cc1cccc(F)c1`
OUT: active

IN: Field entry: `CCC(C)(C)c1ccc(O)c(C(C)(C)CC)c1`
OUT: active

IN: Field entry: `O=C(O)C(Cl)(Cl)Cl`
OUT: inactive

IN: Field entry: `CC(C)(C)CC(C)(C)c1ccc(O)cc1`
OUT: active

IN: Field entry: O=C1C2(Cl)C3(Cl)C4(Cl)C(Cl)(Cl)C5(Cl)C3(Cl)C1(Cl)C5(Cl)C24Cl (stereo not drawn)
OUT: active
